Test system: B6C3F1 mice, B16 melanoma ip, median survival T/C
Assay details: NCI In Vivo Anticancer Drug Screen. Data for tumor model B16 Melanoma (intraperitoneal) in B6C3F1 mice
Test context: endpoint: median survival time; dose: 1.56 mg/kg/injection; schedule: Q01DX009 (ip); vehicle: Klucel (hydroxypropylcellulose) (HPC); higher = longer survival
Inconclusive results and toxic doses are left out.
Measurement label: T/C

Sample records with T/C:
[[record]]
compound = "CN(C(=S)S(=O)(=O)C12CC3CC(CC(C3)C1)C2)c1ccccc1"
measurement_label = "T/C"
readout_value = "104 % of control"

[[record]]
compound = "CC1(C)CC(=O)C(CSC(=O)c2ccccc2)C(=O)C1"
measurement_label = "T/C"
readout_value = "94 % of control"

[[record]]
compound = "Clc1ccc(C[P+](c2ccccc2)(c2ccccc2)c2ccccc2)cc1Cl"
measurement_label = "T/C"
readout_value = "107 % of control"

[[record]]
compound = "N#C[Se-].c1ccc([Te+](c2ccccc2)c2ccccc2)cc1"
measurement_label = "T/C"
readout_value = "92 % of control"

[[record]]
compound = "[F][Sn]([F])([c]1ccccc1)[c]1ccccc1"
measurement_label = "T/C"
readout_value = "98 % of control"


Let's switch to this compound now.
So what does the record say about T/C for CCCCCCC/C=C/C(=O)OC1C(OC2C(OC(CCCCCCC)CC(=O)OC(CCCCCCC)CC(=O)O)OC(C)C(O)C2O)OC(C)C(O)C1O (stereo unspecified) ?
87 % of control

###

Tested on: B6C3F1 mice, B16 melanoma ip, median survival T/C
Assay details: NCI In Vivo Anticancer Drug Screen. Data for tumor model B16 Melanoma (intraperitoneal) in B6C3F1 mice
Test context: endpoint: median survival time; dose: 25.0 mg/kg/injection; schedule: Q01DX009 (ip); vehicle: water
Inconclusive results and toxic doses are left out. The calls were made as follows: active = survival T/C of 150% or more; inactive = T/C below 125% in these data.
// classify into YES (active), NO (inactive)

Below are worked cases with known answers.
[[record]]
compound = "Nc1ccc(C(=O)O)cc1"
label_value = "NO"

[[record]]
compound = "CCN(Cc1ccc(Cl)c(Cl)c1)c1ccc2nc(N)nc(N)c2c1C"
label_value = "YES"

[[record]]
compound = "Cc1noc(N)c1N"
label_value = "NO"


Entry OC1OC2COC(c3ccccc3)OC2C(O)C1O (stereo unspecified) : call = ?
NO

One more compound: [Na+]
NO

One more compound: O=C(NO)c1ccc(O)c(O)c1
NO

One more compound: Nc1cc(Cl)c2[nH]cnc2n1
NO

One more compound: N#CC(OC1OC(COC2OC(CO)C(O)C(O)C2O)C(O)C(O)C1O)c1ccccc1 (stereo unspecified)
NO

One more compound: O=C1C2C3C=CC(C2C(=O)N1CO)C1C2C(=O)N(CO)C(=O)C2C31 (stereo unspecified)
NO

One more compound: ClCC[N+]12CC[N+](CCCl)(CC1)C2
NO

One more compound: NC(=O)/C=C/c1c[nH]c2nccnc12
NO

###

Tested on: B6C3F1 mice, B16 melanoma ip, median survival T/C
Assay details: NCI In Vivo Anticancer Drug Screen. Data for tumor model B16 Melanoma (intraperitoneal) in B6C3F1 mice
Test context: endpoint: median survival time; dose: 200.0 mg/kg/injection; schedule: Q01DX009 (ip); vehicle: saline; higher = longer survival
Inconclusive results and toxic doses are left out. Where a SMILES comes first, the peptide text is derived from it.
The molecules listed here are annotated with their T/C.

[[record]]
molecule = "O=C1CCC2=C3C4CCCC5OC6CC(=O)CCC6=C(C6CCCC(OC2C1)C36)C54 (centres undefined)"
system_under_test = "B6C3F1 mice, B16 melanoma ip, median survival T/C"
readout_value = "97 % of control"

[[record]]
molecule = "CCC(N)C(=O)NCC(=O)NCC(=O)O (centres undefined) (HELM PEPTIDE1{[CCC(N)C(=O)[*:2]].G.G}$$$$V2.0)"
system_under_test = "B6C3F1 mice, B16 melanoma ip, median survival T/C"
readout_value = "108 % of control"

[[record]]
molecule = "Cn1cnc([N+](=O)[O-])c1Sc1ncn[nH]1"
system_under_test = "B6C3F1 mice, B16 melanoma ip, median survival T/C"
readout_value = "108 % of control"

[[record]]
molecule = "CN(C)CC1CCCC(CN(C)C)C1=O (centres undefined)"
system_under_test = "B6C3F1 mice, B16 melanoma ip, median survival T/C"
readout_value = "100 % of control"

[[record]]
molecule = "NCC(=O)NC(Cc1ccc(O)cc1)C(=O)O (centres undefined) (HELM PEPTIDE1{G.[O=C(O)C(Cc1ccc(O)cc1)N[*:1]]}$$$$V2.0)"
system_under_test = "B6C3F1 mice, B16 melanoma ip, median survival T/C"
readout_value = "123 % of control"

[[record]]
molecule = "NCC(=O)NC(CC(N)=O)C(=O)O (centres undefined) (HELM PEPTIDE1{G.[NC(=O)CC(N[*:1])C(=O)O]}$$$$V2.0)"
system_under_test = "B6C3F1 mice, B16 melanoma ip, median survival T/C"
readout_value = "93 % of control"


So what does the record say about T/C for NC(Cn1ccc(=O)c(O)c1)C(=O)O (centres undefined) ?
105 % of control

One more molecule: CC(C)(C)OC(=O)NC(CC(=O)O)C(=O)O (centres undefined)
96 % of control

One more molecule: NC(N)=NCCCC(N)C(=O)NCC(=O)NCC(=O)O (centres undefined) (HELM PEPTIDE1{[N=C(N)NCCCC(N)C(=O)[*:2]].G.G}$$$$V2.0)
102 % of control

# credit: PubChem BioAssay AID200
